- Test system: L1210 leukemia ip in BDF1 mice, survival T/C
- protocol.text: NCI In Vivo Anticancer Drug Screen. Data for tumor model L1210 Leukemia (intraperitoneal) in B6D2F1 (BDF1) mice
- protocol.conditions: endpoint: mean survival time; dose: 100.0 mg/kg/injection; schedule: Q04DX003 (ip); vehicle: saline; higher = longer survival
Inconclusive results and toxic doses are left out.
metric: T/C

Reference set, count: 5
{"compound": "O=c1ccn(Cc2ccccc2)cn1", "endpoint.value": "106 % of control"}
{"compound": "CCCC(=O)Nc1ccc(NS(C)(=O)=O)cc1OC", "endpoint.value": "102 % of control"}
{"compound": "CCN(CC)C(=O)c1ccccc1", "endpoint.value": "103 % of control"}
{"compound": "COc1cc(C)oc(=O)c1", "endpoint.value": "97 % of control"}
{"compound": "CCN(CC)C(=O)C1C=C2c3cccc4c3c(c(Br)n4C)CC2N(C)C1 (centres undefined)", "endpoint.value": "104 % of control"}

Task item: Recorded T/C for CCOC(=O)CNCc1cccc(Cl)c1 , please?
Reply: 102 % of control
